target: Jarid1A (Homo sapiens (Human), UniProt P29375)
Sequence (P29375 1-1090): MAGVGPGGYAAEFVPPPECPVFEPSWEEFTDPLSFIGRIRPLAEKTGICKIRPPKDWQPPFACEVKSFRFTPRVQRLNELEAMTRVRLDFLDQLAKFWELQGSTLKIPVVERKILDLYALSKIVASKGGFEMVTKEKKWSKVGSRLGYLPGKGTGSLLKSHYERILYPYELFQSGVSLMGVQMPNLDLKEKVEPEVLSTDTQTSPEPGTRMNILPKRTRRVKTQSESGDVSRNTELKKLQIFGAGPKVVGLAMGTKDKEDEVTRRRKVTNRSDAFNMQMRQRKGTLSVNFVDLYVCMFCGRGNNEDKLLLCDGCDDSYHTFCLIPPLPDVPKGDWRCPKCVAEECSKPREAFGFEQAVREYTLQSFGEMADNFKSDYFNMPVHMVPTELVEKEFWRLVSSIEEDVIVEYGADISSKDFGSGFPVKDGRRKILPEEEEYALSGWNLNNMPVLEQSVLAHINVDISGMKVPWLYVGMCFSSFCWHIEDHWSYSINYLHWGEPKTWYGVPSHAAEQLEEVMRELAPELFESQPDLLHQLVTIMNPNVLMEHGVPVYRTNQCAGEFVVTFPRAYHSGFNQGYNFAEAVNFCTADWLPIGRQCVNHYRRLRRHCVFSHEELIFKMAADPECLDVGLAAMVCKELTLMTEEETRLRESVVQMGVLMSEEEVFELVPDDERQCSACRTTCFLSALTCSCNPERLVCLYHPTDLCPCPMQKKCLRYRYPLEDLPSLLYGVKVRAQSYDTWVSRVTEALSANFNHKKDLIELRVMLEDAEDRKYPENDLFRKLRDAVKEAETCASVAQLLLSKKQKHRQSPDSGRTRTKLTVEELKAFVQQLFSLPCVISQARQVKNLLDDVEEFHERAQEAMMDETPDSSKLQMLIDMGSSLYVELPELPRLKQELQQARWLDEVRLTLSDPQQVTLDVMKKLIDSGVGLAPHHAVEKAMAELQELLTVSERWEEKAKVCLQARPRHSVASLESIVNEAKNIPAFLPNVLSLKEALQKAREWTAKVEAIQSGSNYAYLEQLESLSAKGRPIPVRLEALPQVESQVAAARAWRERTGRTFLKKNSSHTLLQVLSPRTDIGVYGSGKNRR
pIC50: −log10 of the molar value.
parameter_measured: pIC50

These recorded examples may help you get a feel for the data.
Cc1ccc(CN(C)CCn2cnc(-c3cc(C(=O)O)ccn3)c2)cc1 [Example 67] :: ≥ 7.00
Cc1cc(Cl)ccc1-c1c(-c2cc(C(=O)O)ccn2)ncn1C [Example 26] :: ≥ 7.00
CN1CCC(n2cnc(-c3cc(C(=O)O)ccn3)c2)CC1 [Example 49] :: ≥ 7.00

For every item below, please supply its pIC50.
1. O=C(O)c1ccnc(-c2cn(CCc3cccc4ccccc34)cn2)c1 [Example 112]
2. O=C(O)c1ccnc(-c2cn(CCNCc3ccccc3Cl)cn2)c1 [Example 78]
3. O=C(O)c1ccnc(-c2cn(CC3CCCO3)cn2)c1 (stereo not drawn) [Example 51]
4. CC(c1ccccc1)n1cnc(-c2cc(C(=O)O)ccn2)c1 (stereo not drawn) [Example 103]
5. O=C(O)c1ccnc(-c2cn(CC3CCCN3)cn2)c1 (stereo not drawn) [Example 53]
6. O=C(O)c1ccnc(-c2cn(CCc3ccc(F)cc3)cn2)c1 [Example 92]
7. O=C(O)c1ccnc(-c2cn(CCN3CCCc4cc(F)ccc43)cn2)c1 [Example 90]

Response:
1: ≥ 7.00; 2: ≥ 7.00; 3: ≥ 7.00; 4: ≥ 7.00; 5: ≥ 7.00; 6: ≥ 7.00; 7: ≥ 7.00

* * *

For each entry below, report its IC50 value.
target: JMJD2A (Homo sapiens (Human))
Sequence (O75164 1-350): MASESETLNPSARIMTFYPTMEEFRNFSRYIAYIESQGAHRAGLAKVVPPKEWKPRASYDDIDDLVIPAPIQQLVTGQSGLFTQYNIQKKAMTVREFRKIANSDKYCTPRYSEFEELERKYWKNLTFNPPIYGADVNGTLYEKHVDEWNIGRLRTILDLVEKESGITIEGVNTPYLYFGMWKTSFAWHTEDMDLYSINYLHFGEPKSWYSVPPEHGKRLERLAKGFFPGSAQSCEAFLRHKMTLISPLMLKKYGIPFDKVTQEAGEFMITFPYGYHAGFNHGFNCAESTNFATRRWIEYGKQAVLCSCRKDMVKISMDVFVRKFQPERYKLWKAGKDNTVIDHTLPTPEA
experimental_protocol: JMJD2A in vitro enzyme inhibition assay (TR-FRET)
Format: biochemical

CC(C)C(c1ccccc1)n1cnc(-c2cc(-c3nn[nH]n3)ccn2)c1 (stereo not shown) :: > 10000 nM
Cn1cnc(-c2cc(-c3nn[nH]n3)ccn2)c1 :: > 10000 nM
CCC(c1ccccc1)n1cnc(-c2cc(-c3nn[nH]n3)ccn2)c1 (stereo not shown) :: > 10000 nM
O=C(O)c1ccnc(-c2cn(CCN(Cc3ccc(F)cc3)C3CC3)cn2)c1 :: ≤ 100 nM
c1ccc2c(CCn3cnc(-c4cc(-c5nn[nH]n5)ccn4)c3)cccc2c1 :: > 10000 nM

For every item below, please supply its IC50.
1. O=C(O)c1ccnc(-c2cn(Cc3cccc(-c4ccccc4)c3)cn2)c1
2. CN(CCn1cnc(-c2cc(C(=O)O)ccn2)c1)c1ccccc1
3. O=C(O)c1ccnc(-c2cn(C3Cc4ccccc4C3)cn2)c1
4. CN(C)CCOCCn1cnc(-c2cc(C(=O)O)ccn2)c1
5. O=C(O)c1ccnc(-c2cn(C3CCc4ccc(F)cc43)cn2)c1 (stereo not shown)
6. Clc1ccccc1CCn1cnc(-c2cc(-c3nn[nH]n3)ccn2)c1

Response:
1: 1000 to 10000 nM; 2: 100 to 1000 nM; 3: 100 to 1000 nM; 4: ≤ 100 nM; 5: 100 to 1000 nM; 6: > 10000 nM

For every item below, please supply its IC50.
1. O=C(O)c1ccnc(-c2cn(CCN3CCCC3)cn2)c1
2. O=C(O)c1ccnc(-c2cn(CCN3CCCC3=O)cn2)c1
3. CN(CCn1cnc(-c2cc(C(=O)O)ccn2)c1)c1ccc(Cl)cc1
4. CC(C)C(c1ccccc1)n1cnc(-c2cc(C(=O)O)ccn2)c1 (stereo not shown)
5. O=C(O)c1ccnc(-c2cn(CCc3ccccc3C(F)(F)F)cn2)c1
6. O=C(O)c1ccnc(-c2cn(CCN3CCc4cc(F)ccc43)cn2)c1
7. FC(F)(F)c1ccccc1CCn1cnc(-c2cc(-c3nn[nH]n3)ccn2)c1

Response:
1. ≤ 100 nM
2. ≤ 100 nM
3. 100 to 1000 nM
4. 100 to 1000 nM
5. ≤ 100 nM
6. 100 to 1000 nM
7. > 10000 nM

Entry Cc1ccccc1CCn1cnc(-c2cc(C(=O)O)ccn2)c1 ; IC50 = 100 to 1000 nM
